Data provenance: paper PMC8119466

target: recombinant PRL-1 (Homo sapiens, UniProt Q93096); construct: 6xHis (N, cleaved yes); made in house; host or cells: E. coli One Shot BL21 Star; test: In vitro phosphatase assay (DiFMUP hydrolysis), PRL-1; format: biochemical; settings: FDA-approved drug screen; compared to DMSO
Sequence (Q93096 whole entry): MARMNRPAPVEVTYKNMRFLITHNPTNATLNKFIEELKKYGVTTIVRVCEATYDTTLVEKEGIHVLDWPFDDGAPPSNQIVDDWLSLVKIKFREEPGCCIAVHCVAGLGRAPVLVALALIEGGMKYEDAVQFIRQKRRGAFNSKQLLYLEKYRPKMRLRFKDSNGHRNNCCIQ
Where a name gives a salt, the structure may show the parent alone. Non-standard residues stand in square brackets, D forms with d. Residues, ends and D or L forms follow the SMILES beside them. pGlu = O=C1CC[C@@H](C(=O)O)N1; Thz = O=C(O)[C@@H]1CSCN1
Assay metric: % Phosphatase Activity (compared to DMSO) PRL-1 (%)

{"columns": ["Compound", "Target system", "Measurement unit", "Result value"],
 "data": [
  ["Cl.O=C1OC(CN2CCOCC2)CN1/N=C/c1ccc([N+](=O)[O-])o1 (stereo not drawn) [Furaltadone HCl]", "recombinant PRL-1 (Homo sapiens, UniProt Q93096)", "%", 74],
  ["FC(F)(F)C(Cl)Br (stereo not drawn)", "recombinant PRL-1 (Homo sapiens, UniProt Q93096)", "%", 102],
  ["COc1cc(/C=C/C(=O)CC(=O)/C=C/c2ccc(O)c(OC)c2)ccc1O", "recombinant PRL-1 (Homo sapiens, UniProt Q93096)", "%", 78],
  ["C[C@]12CC[C@@H]3c4ccc(O)cc4CC[C@H]3[C@@H]1CCC2=O", "recombinant PRL-1 (Homo sapiens, UniProt Q93096)", "%", 107],
  ["CCOc1ccc2nc3cc(N)ccc3c(N)c2c1 [Ethacridine lactate monohydrate]", "recombinant PRL-1 (Homo sapiens, UniProt Q93096)", "%", 246],
  ["Nc1[nH]c(=O)ncc1F", "recombinant PRL-1 (Homo sapiens, UniProt Q93096)", "%", 99],
  ["O=C1CC[C@@H](C(=O)N2CSC[C@H]2C(=O)O)N1 [Pidotimod] ([pGlu]-[Thz]-OH)", "recombinant PRL-1 (Homo sapiens, UniProt Q93096)", "%", 113],
  ["OC(CCN1CCCC1)(c1ccccc1)C1CCCCC1 (stereo not drawn) [Procyclidine HCl]", "recombinant PRL-1 (Homo sapiens, UniProt Q93096)", "%", 112],
  ["C=CC(=O)Nc1cc(Nc2nccc(-c3cn(C)c4ccccc34)n2)c(OC)cc1N(C)CCN(C)C", "recombinant PRL-1 (Homo sapiens, UniProt Q93096)", "%", 88]
]}

----------
target: recombinant PRL-1 (Homo sapiens); construct: 6xHis (N, cleaved yes); made in house; host or cells: E. coli One Shot BL21 Star; assay: In vitro phosphatase assay (DiFMUP hydrolysis), PRL-1; format: biochemical; conditions: FDA-approved drug screen; compared to DMSO
Structures can show the parent of a compound that is named as a salt.
Kind request: treat 90% as inclusive, so % Phosphatase Activity (compared to DMSO) PRL-1 at 90% or higher is 1, anything lower is -1.

{"columns": ["Molecule", "Answer label"],
 "data": [
  ["Cl.O=C(OCC(O)CO)c1ccccc1Nc1ccnc2cc(Cl)ccc12 (centres unmarked) [Glafenine HCl]", -1],
  ["NCCC(O)(P(=O)([O-])O)P(=O)([O-])O.[Na+].[Na+] [Pamidronate Disodium]", 1],
  ["CCC1(c2cccc(O)c2)CCCCN(C)C1 (centres unmarked) [Meptazinol HCl]", 1],
  ["CCC[C@@H]1C[C@@H](C(=O)N[C@@H]([C@H]2O[C@H](SC)[C@H](OP(=O)(O)O)[C@@H](O)[C@H]2O)[C@H](C)Cl)N(C)C1 [Clindamycin Phosphate]", 1]
]}

----------
molecular target: recombinant PRL-2 (Homo sapiens, UniProt Q12974); construct: 6xHis (N, cleaved yes); made in house; host or cells: E. coli One Shot BL21 Star; assay: In vitro phosphatase assay (DiFMUP hydrolysis), PRL-2; format: biochemical; conditions: FDA-approved drug screen; compared to DMSO;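 further: PRL-2 activity read as DiFMUP hydrolysis after 20 min at room temperature with drug, enzyme first pre-reduced at 4 °C for 20 min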
Sequence (Q12974 whole entry): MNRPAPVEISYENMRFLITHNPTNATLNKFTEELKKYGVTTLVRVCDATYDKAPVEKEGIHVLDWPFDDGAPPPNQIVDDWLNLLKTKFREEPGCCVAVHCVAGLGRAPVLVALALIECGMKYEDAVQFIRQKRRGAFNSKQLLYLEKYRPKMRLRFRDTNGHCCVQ
The entries below come with measured % Phosphatase Activity (compared to DMSO) PRL-2 values attached.
Assay metric: % Phosphatase Activity (compared to DMSO) PRL-2 (%)

{"columns": ["Compound", "Measurement unit", "Result value"],
 "data": [
  ["Cl.Fc1ccc([C@@H]2CCNC[C@H]2COc2ccc3c(c2)OCO3)cc1 [Paroxetine HCl]", "%", 128],
  ["COC(=O)N[C@H](C(=O)N[C@@H](Cc1ccccc1)[C@@H](O)CN(Cc1ccc(-c2ccccn2)cc1)NC(=O)[C@@H](NC(=O)OC)C(C)(C)C)C(C)(C)C [Atazanavir]", "%", 89],
  ["CC(C)OC(=O)C(C(=O)OC(C)C)=C1SC=CS1 [Malotilate]", "%", 58],
  ["CCCC(CCC)C(=O)O[C@H]1C[C@H]2CC[C@@H](C1)[N+]2(C)C [Anisotropine Methylbromide]", "%", 108],
  ["NC(=O)c1ccc(I)c([N+](=O)[O-])c1 [Iniparib (BSI-201)]", "%", 112],
  ["O=C(O)c1cc(=O)[nH]c(=O)[nH]1.O=C(O)c1cc(=O)[nH]c(=O)[nH]1 [Orotic acid (6-Carboxyuracil)]", "%", 109],
  ["CNCCC(Oc1ccc(C(F)(F)F)cc1)c1ccccc1.Cl (centres unmarked) [Fluoxetine HCl]", "%", 105],
  ["Cl.O=C1OC(CN2CCOCC2)CN1/N=C/c1ccc([N+](=O)[O-])o1 (centres unmarked) [Furaltadone HCl]", "%", 80],
  ["CCCNC(C)C(=O)Nc1ccccc1C (centres unmarked) [Prilocaine]", "%", 107],
  ["[I-].[K+] [Potassium Iodide]", "%", 91],
  ["COc1nc(C)nc(Cl)c1N=C1NCCN1 [Moxonidine]", "%", 109],
  ["C[N+](C)(CCOc1ccccc1)Cc1ccccc1.O=C([O-])c1cc2ccccc2cc1O [Bephenium Hydroxynaphthoate]", "%", 103],
  ["Cc1ccc(S(=O)(=O)Nc2nc3ccccc3nc2Nc2ccc3nsnc3c2)cc1 [Pilaralisib (XL147)]", "%", 65],
  ["Clc1ccc2c(c1)C(N1CCNCC1)=Nc1ccccc1O2 [Amoxapine]", "%", 118],
  ["CC(=O)N[C@@H](CS)C(=O)O [Acetylcysteine]", "%", 99],
  ["CC[C@H]1[C@@H](O)[C@@H]2[C@H](CC[C@]3(C)[C@@H]([C@H](C)CCC(=O)O)CC[C@@H]23)[C@@]2(C)CC[C@@H](O)C[C@@H]12 [Obeticholic Acid]", "%", 72],
  ["O=S(=O)(O)c1cc(O)ccc1O [Ethamsylate]", "%", 99]
]}

----------
target: recombinant PRL-1 (Homo sapiens); construct: 6xHis (N, cleaved yes); made in house; host or cells: E. coli One Shot BL21 Star; experiment: In vitro phosphatase assay (DiFMUP hydrolysis), PRL-1; format: biochemical; conditions: FDA-approved drug screen; compared to DMSO
Structures can show the parent of a compound that is named as a salt.
Assay metric: % Phosphatase Activity (compared to DMSO) PRL-1 (%)

{"columns": ["Compound", "Result value"],
 "data": [
  ["NC(=O)N1c2ccccc2C=Cc2ccccc21 [Carbamazepine]", 98],
  ["O=C1CN(/N=C/c2ccc(-c3ccc([N+](=O)[O-])cc3)o2)C(O)=N1 [Dantrolene sodium]", 76],
  ["Cc1cccc(Nc2ccccc2C(=O)O)c1C", 98],
  ["Cc1onc(-c2c(Cl)cccc2Cl)c1C(=O)N[C@@H]1C(=O)N2[C@@H]1SC(C)(C)[C@@H]2C(=O)O [Dicloxacillin Sodium]", 106],
  ["CC(=O)OCC(=O)[C@H]1CC[C@H]2[C@@H]3CCC4=CC(=O)CC[C@]4(C)[C@H]3CC[C@]12C [Deoxycorticosterone acetate]", 84],
  ["CC(C[N+](C)(C)C)OC(N)=O (centres unmarked) [Bethanechol chloride]", 104],
  ["O=C1CC2(CCCC2)CC(=O)N1CCCCN1CCN(c2ncccn2)CC1 [Buspirone HCl]", 89],
  ["COc1c2occc2cc2ccc(=O)oc12", 81],
  ["CC(C(=O)O)c1ccc2c(c1)[nH]c1ccc(Cl)cc12 (centres unmarked)", 95],
  ["CS(=O)(=O)c1ccc([C@@H](O)[C@@H](CF)NC(=O)C(Cl)Cl)cc1", 100],
  ["NS(=O)(=O)NCCNc1nonc1/C(=N/O)Nc1ccc(F)c(Br)c1", 111],
  ["CC(C)NCC(O)c1ccccc1Cl.Cl (centres unmarked) [Clorprenaline HCl]", 91],
  ["CC1(C)S[C@@H]2[C@H](NC(=O)[C@H](NC(=O)N3CCN(S(C)(=O)=O)C3=O)c3ccccc3)C(=O)N2[C@H]1C(=O)O [Mezlocillin Sodium]", 92],
  ["Cc1ccc2c(Cl)cc(Cl)c(O)c2n1", 88],
  ["COc1cc2c(cc1Cc1cccc(Cl)c1F)c(=O)c(C(=O)O)cn2[C@H](CO)C(C)C", 82],
  ["NC(=O)c1ccc(I)c([N+](=O)[O-])c1", 107],
  ["CC(=O)OCC(CCn1cnc2cnc(N)nc21)COC(C)=O", 107]
]}
